# Experimental protocol: in vivo
# Run parameters: male, ICR, mouse, po, 3 mg/kg, t1/2, mouse, oral gavage, Kidney
Classify by measured half-life: Satisfied if it is equal to or exceeds 4 h, Not satisfied if it is smaller.

Solved cases (4 shown):
                                   molecule  assigned_category
0  CC#CCn1c(N2CCC[C@@H](N)C2)nc2c1c(=O)n(Cc1nc(C)c3ccccc3n1)c(=O)n2C [Linagliptin, linagliptin]      Not satisfied
1  OC[C@H]1O[C@@H](c2ccc(Cl)c(Cc3ccc(O[C@H]4CCOC4)cc3)c2)[C@H](O)[C@@H](O)[C@@H]1O [Jardiance]      Not satisfied
2  Cc1ccc(-c2cc(C(F)(F)F)nn2-c2ccc(S(N)(=O)=O)cc2)cc1 [Celecoxib, celecoxib]          Satisfied
3  COc1ccc2c(c1)c(CC(=O)O)c(C)n2C(=O)c1ccc(Cl)cc1 [Indomethacin, indomethacin]      Not satisfied

Q: Answer whether half-life of OC[C@H]1O[C@@H](c2ccc(F)c(Cc3cc4ccccc4s3)c2)[C@H](O)[C@@H](O)[C@@H]1O [Ipragliflozin, ipragliflozin] is greater than or equal to 4 h.
Ans: Not satisfied

* * *

# Drug concentration, time course annotations
# Run parameters: normal mice, oral gavage, 3mg/kg; Plasma; 12h
// no unit, no text: just the number

Solved cases (3 shown):
>>> print(df.to_string())
                         chemical_structure  value_measured
0  N#C[C@@H]1CCCN1C(=O)CNC12CC3CC(CC(O)(C3)C1)C2             600
1  CC#CCn1c(N2CCC[C@@H](N)C2)nc2c1c(=O)n(Cc1nc(C)c3ccccc3n1)c(=O)n2C               0
2  Cn1c(=O)cc(N2CCC[C@@H](N)C2)n(Cc2ccccc2C#N)c1=O               0

Q: // returns reported Drug concentration, time course for input Cc1ccc(-c2cc(C(F)(F)F)nn2-c2ccc(S(N)(=O)=O)cc2)cc1
Ans: 0

* * *

# Experimental protocol: in vivo
# Run parameters: male, ICR, mouse, po, 3 mg/kg, Cmax, oral gavage, Liver
# label = 1 (yes) if Cmax >= 5000 ng/mL else 0 (no)

                                   compound  assigned_category
0  OC[C@H]1O[C@@H](c2ccc(Cl)c(Cc3ccc(O[C@H]4CCOC4)cc3)c2)[C@H](O)[C@@H](O)[C@@H]1O [Jardiance]             0 (no)
1  Cn1c(=O)cc(N2CCC[C@@H](N)C2)n(Cc2ccccc2C#N)c1=O [Alogliptin, alogliptin]            1 (yes)
2  CC1(C)S[C@@H]2[C@H](NC(=O)[C@H](N)c3ccc(O)cc3)C(=O)N2[C@H]1C(=O)O [Amoxicillin, amoxicillin]             0 (no)
3  OC[C@H]1O[C@@H](c2ccc(F)c(Cc3cc4ccccc4s3)c2)[C@H](O)[C@@H](O)[C@@H]1O [Ipragliflozin, ipragliflozin]             0 (no)

Q: Confirm if Cmax reported for the compound COc1ccc2c(c1)c(CC(=O)O)c(C)n2C(=O)c1ccc(Cl)cc1 [Indomethacin, indomethacin] is 5000 ng/mL or above.
Ans: 1 (yes)

Q: API: above_or_equal(metric=Cmax, cutoff=5000 ng/mL) for item Cc1ccc(-c2cc(C(F)(F)F)nn2-c2ccc(S(N)(=O)=O)cc2)cc1 [Celecoxib, celecoxib]
Ans: 1 (yes)

Sourced from paper PMC8053501
